Test system: MV-4-11
Assay: Anti-proliferation assay (CellTiter-Glo 2.0), combination index, MV-4-11
Assay type: cell-based
Settings: Compound 1 123 + combination drug 10000 nmol/L (1:81)
Readout: Fa
Number only, no unit.

Here's what some known entries look like.
# Smiles structure, Value observed
data = [
    ("NC1(c2ccc(-c3nc4ccn5c(=O)[nH]nc5c4cc3-c3ccccc3)cc2)CCC1", 0.9846),
    ("COc1cc2c(Nc3ccc(Br)cc3F)ncnc2cc1OCC1CCN(C)CC1", 0.9916),
    ("C#Cc1cccc(Nc2ncnc3cc(OCCOC)c(OCCOC)cc23)c1", 0.9472),
]

For the next question, use this compound.
Ask: What reported Fa corresponds to `CC[C@H](Nc1ncnc2[nH]cnc12)c1nc2cccc(F)c2c(=O)n1-c1ccccc1` on MV-4-11?
Result: 0.9566

----------
Fa values, listed per item
Test system: MV-4-11
Test: Anti-proliferation assay (CellTiter-Glo 2.0), combination index, MV-4-11
Type: cell-based
Conditions: Compound 1 41.2 + combination drug 3330 nmol/L (1:81)

# Smiles structure, Test target, Fa
records = [
    ("CC[C@H](Nc1ncnc2[nH]cnc12)c1nc2cccc(F)c2c(=O)n1-c1ccccc1", "MV-4-11", 0.8924),
    ("NC1(c2ccc(-c3nc4ccn5c(=O)[nH]nc5c4cc3-c3ccccc3)cc2)CCC1", "MV-4-11", 0.9006),
]

Ask: What value of Fa has been reported for the following compound? `C#Cc1cccc(Nc2ncnc3cc(OCCOC)c(OCCOC)cc23)c1`
Result: 0.8799

Ask: What value of Fa has been reported for the following compound? `COc1cc2c(Nc3ccc(Br)cc3F)ncnc2cc1OCC1CCN(C)CC1`
Result: 0.9448

----------
# pIC50 measurements, system: SHP2 (Homo sapiens, UniProt Q06124)
# Sequence (Q06124 whole entry): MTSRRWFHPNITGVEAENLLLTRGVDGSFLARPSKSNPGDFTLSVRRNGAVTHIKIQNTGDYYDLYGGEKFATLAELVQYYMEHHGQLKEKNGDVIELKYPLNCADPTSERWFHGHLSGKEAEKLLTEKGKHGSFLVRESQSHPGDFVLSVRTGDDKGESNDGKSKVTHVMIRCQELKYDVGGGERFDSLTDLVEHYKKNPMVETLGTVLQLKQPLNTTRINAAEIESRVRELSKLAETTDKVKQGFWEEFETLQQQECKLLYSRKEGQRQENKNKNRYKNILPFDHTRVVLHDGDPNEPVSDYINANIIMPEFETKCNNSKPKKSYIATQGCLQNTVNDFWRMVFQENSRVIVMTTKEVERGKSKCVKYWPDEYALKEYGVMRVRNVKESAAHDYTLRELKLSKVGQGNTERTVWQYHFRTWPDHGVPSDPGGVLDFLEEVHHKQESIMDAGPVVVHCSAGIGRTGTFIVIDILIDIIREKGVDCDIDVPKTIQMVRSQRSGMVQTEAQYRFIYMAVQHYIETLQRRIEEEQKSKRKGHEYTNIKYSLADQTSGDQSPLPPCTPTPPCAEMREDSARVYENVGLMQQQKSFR
Please express pIC50 as -log10 of the molar concentration.

# Smiles structure, Test target, Readout, Value observed
data = [
    ("Cn1cc2c(Cl)c(-c3c[nH]c4nc(N5C[C@H]6CC[C@@H]5[C@@H]6N)n(C)c(=O)c34)ccc2n1", "SHP2 (Homo sapiens, UniProt Q06124)", "pIC50", 8.43),
    ("Cn1nc2ccc(-c3c[nH]c4nc(N5[C@H]6CC[C@@H]5[C@H](N)C6)n(C)c(=O)c34)c(Cl)c2c1Cl", "SHP2 (Homo sapiens, UniProt Q06124)", "pIC50", 8.70),
    ("CCn1cc2c(Cl)c(-c3c[nH]c4nc(N5[C@H]6CC[C@@H]5[C@H](N)C6)n(C)c(=O)c34)ccc2n1", "SHP2 (Homo sapiens, UniProt Q06124)", "pIC50", 8.48),
    ("Cn1nc2ccc(-c3n[nH]c4nc(N5C[C@H]6CC[C@@H]5[C@@H]6N)n(C)c(=O)c34)c(Cl)c2c1Cl", "SHP2 (Homo sapiens, UniProt Q06124)", "pIC50", 8.59),
    ("Cn1nc2ccc(-c3c[nH]c4nc(N5C[C@H]6CC[C@@H]5[C@@H]6N)n(C)c(=O)c34)c(Cl)c2c1Cl", "SHP2 (Homo sapiens, UniProt Q06124)", "pIC50", 8.82),
    ("CCn1cc2c(Cl)c(-c3c[nH]c4nc(N5C[C@H]6CC[C@@H]5[C@@H]6N)n(C)c(=O)c34)ccc2n1", "SHP2 (Homo sapiens, UniProt Q06124)", "pIC50", 8.40),
]

For the next question, use this compound.
Ask: What reported pIC50 corresponds to `Cn1nc2ccc(-c3c[nH]c4nc(N5[C@H]6CC[C@@H]5[C@H](N)C6)n(C)c(=O)c34)c(F)c2c1Cl` on SHP2 (Homo sapiens, UniProt Q06124)?
Result: 8.55

----------
Test system: MV-4-11
Experiment: Anti-proliferation assay (CellTiter-Glo 2.0), combination index, MV-4-11
Format: cell-based
Details: Compound 1 4.57 + combination drug 370 nmol/L (1:81)
Fa values, listed per item

Here's what some known entries look like.
# Molecule, Fa
data = [
    ("COc1cc2c(Nc3ccc(Br)cc3F)ncnc2cc1OCC1CCN(C)CC1 [Vandetanib]", 0.5454),
    ("C#Cc1cccc(Nc2ncnc3cc(OCCOC)c(OCCOC)cc23)c1 [Erlotinib]", 0.2460),
    ("CC[C@H](Nc1ncnc2[nH]cnc12)c1nc2cccc(F)c2c(=O)n1-c1ccccc1 [Idelalisib]", 0.3705),
]

Ask: What value of Fa has been reported for the following molecule? NC1(c2ccc(-c3nc4ccn5c(=O)[nH]nc5c4cc3-c3ccccc3)cc2)CCC1 [MK-2206]
Result: 0.3899

----------
Tested on: MV-4-11
Test: Anti-proliferation assay (CellTiter-Glo 2.0), combination index, MV-4-11
Type: cell-based
Conditions: Compound 1 123 + combination drug 10000 nmol/L (1:81)
CI values, listed per item
Number only, no unit.

# Molecule, Test target, CI
rows = [
    ("CC[C@H](Nc1ncnc2[nH]cnc12)c1nc2cccc(F)c2c(=O)n1-c1ccccc1 [Idelalisib]", "MV-4-11", 0.273),
    ("NC1(c2ccc(-c3nc4ccn5c(=O)[nH]nc5c4cc3-c3ccccc3)cc2)CCC1 [MK-2206]", "MV-4-11", 0.137),
    ("C#Cc1cccc(Nc2ncnc3cc(OCCOC)c(OCCOC)cc23)c1 [Erlotinib]", "MV-4-11", 0.962),
]

For the next question, use this molecule.
Ask: What value of CI has been reported for the following molecule? COc1cc2c(Nc3ccc(Br)cc3F)ncnc2cc1OCC1CCN(C)CC1 [Vandetanib]
Result: 0.294

Ref: patent US20230146795A1
